Would you mind telling me the reported PBM binding z-score of each entry?
# Tested on: PPARg:RXRa 270nM:90nM, anti-RXR (NR concentration 270 nM, RXRa partner concentration 90 nM)
# Experiment Summary: PBM binding z-score (relative to random genomic background probes); higher = stronger binding; sequences stand for … in GC…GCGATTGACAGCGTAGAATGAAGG
# respond with the number and nothing more

[in] Note PBM binding z-score for the sequence shown: "TCAGACAGTTGAAGGTAACTCAGGTACGCAGTCG"
[out] 2.27

[in] Let me know recorded PBM binding z-score for "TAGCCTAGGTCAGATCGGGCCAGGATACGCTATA" , thanks.
[out] 0.623

[in] Write down PBM binding z-score measured for item "AGAATGAGGTTATACGTATATCAGGGAAGAAAGT"
[out] 2.29

[in] Tell me PBM binding z-score reported for "CTCGAAAGGTCGTGCTCAGGTGACTATACCAAAC"
[out] 3.95

[in] Name the recorded PBM binding z-score of the item "AGAACGAGTGCACGCTGAGTTGATAGCAGAGTAG" in your answer.
[out] -0.2

[in] Return PBM binding z-score for the following sequence: "ACTACCAGGCCAAGTTTGGGTCACTCAAACAAAG"
[out] 0.598

[in] Provide only the value of recorded PBM binding z-score for "TCTCGGAGGACACGAAGCTCAGAGCTTTCCAGAG"
[out] 0.617

[in] Dear colleague, please send me the reported PBM binding z-score for "CCGAGTAGGTTATGGTGCATTCAGGCAACGGTGA" when you can.
[out] 3.55

[in] Supply measured PBM binding z-score of "TCTGCTAGGTCAGTTGGTCAGCTATCGAGCTGCC" in your reply.
[out] 1.72

[in] Entry "GGAACGAGGGCAAGTGGATAGCAGAGTTTGATGG" needs its PBM binding z-score filled in; supply it.
[out] 1.21

[in] Check the records and state PBM binding z-score for "TCTTGTAGATCAACAGGAGGTTAAAAAAGATCGA"
[out] 1.59

[in] Fill in PBM binding z-score for record "ATACCAAGGTGTTCGTGAGGTCGTTGATACTAAC"
[out] 0.343

[in] Fill in PBM binding z-score for record "TCTTGTAGATCAAAGGTTAAGAAGGCCGAAGCCT"
[out] 8.32

[in] // Input: "TCTTGTAGATCAGGAGGTTAAGAAAGCTGGCCAA" . Output its PBM binding z-score only.
[out] 1.8

[in] Note PBM binding z-score for the sequence shown: "CCTACTGGGCCAAAAAGGTCATTGAAGCCGATAA"
[out] 4.24

[in] Output measured PBM binding z-score for this item: "ATATTTAGGTTAGCTGGGGTCATTCAGACTAGGC"
[out] 4.63

[in] Check the records and state PBM binding z-score for "CCTGGTTGGTCAAGGTCACACACGCTATAGGTAC"
[out] 3.15

[in] Could you please provide reported PBM binding z-score for "CGAACTAGGTTAGAACAGGACAGTGAAGGATGAT" ? Thanks!
[out] 1.27

[in] Identify measured PBM binding z-score associated with "TCATATAGGTAAACAGGTGACAGTCCGTAAGTTA"
[out] 3.35

[in] // Input: "GCTTACGGGTCAAAGGTTAGAGCATGAATAGAAT" . Output its PBM binding z-score only.
[out] 8.89

[in] Supply measured PBM binding z-score of "AATAGAGGGTCACTAGGCCAGAGTAGGTACGAAT" in your reply.
[out] 5.59

[in] State its PBM binding z-score: "TGAATGAGGTTATAAGATCATGGAACGTTGCAAA"
[out] 2.41

[in] Tell us which PBM binding z-score value is on record for "GCTTGTAGATCCAGGTTAAGAAAGACTAAGCTAA"
[out] 0.0602

[in] Complete the entry with PBM binding z-score for "GTTGCTAGGTCAACTGATGGTCAGCTAAAGCTCG"
[out] 3.96

[in] Using the record for "CGTCCACGGTCAGAGAGGTCAGTGAATGCCGAGT" , state its measured PBM binding z-score.
[out] 0.996

[in] Answer with the recorded PBM binding z-score of "GCTTGTAGATCAAAGTTAAGAAAGACTAAGCTAA" only.
[out] 4.31

* * *

# Tested on: PPARg homodimer (NR concentration 180 nM)
# Experiment Summary: PBM binding z-score (relative to random genomic background probes); higher = stronger binding; sequences stand for … in GC…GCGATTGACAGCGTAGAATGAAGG
Assign yes (1) whenever PBM binding z-score does not fall below 2; assign no (0) whenever it does.

[in] Could you verify whether the entry "AATACAGGGTCATCGTAGGCCGGAGTACGCACAG" shows PBM binding z-score of no less than 2?
[out] yes (1)

[in] Tell me whether PBM binding z-score is at least 2 here: "TCGAGTAGGTTACCAATAGGGCATTCAGCTTTCT"
[out] no (0)

[in] Dear colleague, could you confirm whether "AGAACGAGGGCTATGAGTTGATAGCACGGGTGGC" has PBM binding z-score at or above 2?
[out] no (0)

[in] Say whether "CCTCGGATGACAACAGGAGGTCAGAGCTGCCAGA" shows PBM binding z-score of 2 or more.
[out] no (0)

[in] Item "ATCGAAAGGTCGAGGGTGAGTATACCCACCCGAA" with PBM binding z-score of 2 or above?
[out] no (0)

[in] Could you tell me if the measured PBM binding z-score of "GCGACTGGGGCAAAGCAGATTACCATAAGGTTGG" reaches 2 or more?
[out] no (0)

[in] Reported PBM binding z-score at or above 2? "CATACTGGGCCAAAGGTCATTGATTCCAATGCTC"
[out] yes (1)

[in] Exam item: decide whether the reported PBM binding z-score for "TAGCCTAGGTCATGGACCAGTATACCACGCGAAC" is at least 2.
[out] no (0)

[in] Exam item: decide whether the reported PBM binding z-score for "TCTAGTTGGTCACGGTGGTCACACACGACGGGTA" is at least 2.
[out] no (0)

[in] Assess whether reported PBM binding z-score for "CGTCCCAGGTCAGAGAGGTCAGTGAATGCCGAGT" sits at 2 or higher.
[out] yes (1)

[in] Could you please find out whether "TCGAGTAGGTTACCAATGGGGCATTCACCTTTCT" has PBM binding z-score that meets 2 or exceeds it?
[out] no (0)

[in] Exam item: decide whether the reported PBM binding z-score for "TTGAGTAGGTTAGTCGGGGCATTCAGCCAACATA" is at least 2.
[out] no (0)

[in] State whether the measured PBM binding z-score reaches 2, counting equality as reaching it, for "CCTACTGGGCCAAAGGTCATTGTTTCCAATGCTC"
[out] yes (1)

[in] Could you verify whether the entry "ACTGGTTGGTCAGCTGAGGTCACACACAATTCGG" shows PBM binding z-score of no less than 2?
[out] yes (1)

[in] Reported PBM binding z-score at or above 2? "CCGACCGGGGCAAGGTTACCATAACGCACAGCCA"
[out] no (0)

[in] Reported PBM binding z-score reaches at least 2 for "CAAACTAGCTCAAGGTCAAAGTCGGTTTGTGCCA" ?
[out] yes (1)

[in] Is the recorded value of PBM binding z-score equal to or greater than 2 for this sequence? "CCGAGTAGGTTATGGGGCATTGAGGCAACGGTGA"
[out] no (0)

[in] Reported PBM binding z-score at or above 2? "GCATGTAGGTAATACAAGGTGAAAGTCCGATTGT"
[out] no (0)

[in] Given "GCAGACAGATGAAACGCAGGTAACTCAGGGTGGC" , state whether its PBM binding z-score is at least 2.
[out] no (0)

[in] Quick check: does "CCAGACAGGTGAATGGTAACTCAGTCTGGTACGC" have PBM binding z-score greater than or equal to 2?
[out] no (0)

[in] Hi team, for "AATACAGGGTCACTAGGCCACAGTAGGTACGAAT" , is the recorded PBM binding z-score at or above 2?
[out] yes (1)

[in] Confirm if PBM binding z-score reported for the sequence "CCTTACGGGACACTGACAGGTTATAGCATTTGGA" is 2 or above.
[out] no (0)

[in] Hi, just wondering whether "CCTGCGAGGTCAATGGTCAGCTAAAGCAGCTCGC" shows PBM binding z-score of 2 or higher.
[out] yes (1)

[in] Hi, just wondering whether "ATCTCTAGGTAACCAAGTTCAATGAATGCCGAAC" shows PBM binding z-score of 2 or higher.
[out] no (0)

[in] Hi, just wondering whether "CCGACTGGGGCAAGGTTACCACAACGCACAGCCA" shows PBM binding z-score of 2 or higher.
[out] no (0)

[in] Confirm if PBM binding z-score reported for the sequence "CCTACTGGGCCAAAGTCATTGATCAGTCAAAGCA" is 2 or above.
[out] no (0)
